meta.source: patent US20240228658A1

- system_tested: T1, recombinant human 5T4 ECD protein fused to human Fc (human, UniProt Q13641 32-355)
- T1 construct: extracellular domain; Immunogen, ELISA antigen and Octet analyte; also called 5T4-ECD-hFc; 5T4-ECD-Fc; not shown: human Fc
- T1 sequence (looked up): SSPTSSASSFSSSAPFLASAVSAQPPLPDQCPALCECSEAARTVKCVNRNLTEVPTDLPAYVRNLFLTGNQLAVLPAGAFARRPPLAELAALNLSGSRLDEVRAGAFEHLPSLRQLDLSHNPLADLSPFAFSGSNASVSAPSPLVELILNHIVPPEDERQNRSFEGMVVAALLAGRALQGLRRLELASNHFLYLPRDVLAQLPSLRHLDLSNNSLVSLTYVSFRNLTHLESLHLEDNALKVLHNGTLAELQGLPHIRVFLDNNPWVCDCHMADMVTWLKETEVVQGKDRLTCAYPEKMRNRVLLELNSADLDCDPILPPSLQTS
- method_notes: Octet, mAb on AMC sensor, 5T4-Fc as analyte
# maps each entry to its kon

binder	output_unit	kon
mAb018 (antibody, V domains shown, also called IM, 5T4 mouse hybridoma cl-18) VH: EVQLRQSGPVLVKPGASLKMSCKASGFTIADYYMTWVTQSHGQSLDWIGLINPYSGETTYNQKFKGKATLSVDKSSNTAYMDLNSLTSEDSAVYYCARWRLGYYAMDYWGRGTSVTVSS VL: ENVLTQSPAIMSASPGEKVTMTCSASSSVSYMHWYQQKSSTSPKVWIYDTSKLASGVPGRFSGSGSGNSYSLTISSMEAEDVATYYCFQGIGYPYTFGGGTKLEIK	M⁻¹ s⁻¹	259000
mAb005 (antibody, V domains shown, also called IM, 5T4 mouse hybridoma cl-5) VH: EVQLVESGGGLVQPKGSLQLSCAASGFTFNTYAMHWVRQAPGKGLEWVARIRSKSSNYATYYADSVKDRFTISRDDSQSMLYLQMNNLKTEDTAMYYCVRDGDYYYGSRPSYWYFDVWGTGTTVTVSS VL: DILLTQSPAILSVSPGERVSFSCRASQSIGTNIHWYQQRTNGSPRLLIKYASESISGIPSRFSGSGSGTDFTLSINNVESEDIADYYCQQTNTWPLTFGAGTKLDLK	M⁻¹ s⁻¹	89300
mAb016 (antibody, V domains shown, also called mAb0016; IM, 5T4 mouse hybridoma cl-16) VH: AVQLQQSGPVRVKPGASVKMSCKASGYPFTDYYMNWVKQSHGRSLDWIGVFNPYNGDTRYTQKFKDKATLTIDKSSSTAYMELNSLTSEDSAVYYCARLRLLYDTSEYYVMDYWGQGTSVTVSS VL: ENVLTQSPAIMSASPGEKVTMTCSASSSVNYMHWYQQKSNTSPKLWIYDTSKLASGVPGRFSGSGSGNSYSLTISSMEAEDVATYFCFQGSGYPYTFGGGTKLEIK	M⁻¹ s⁻¹	150000
mAb010 (antibody, V domains shown, also called mAb10; IM, 5T4 mouse hybridoma cl-10) VH: QVQLRQSGAELMKPGASVKLSCKATGYTFTGYWIEWVKQRPGHGLEWIGEILPGRGSSNYNEKFKGKATLTADTSSNTVYMQLSSLTIEDSAIYYCARGGRDFDYWGQGTTLTVSS VL: DIQMTQITSSLSASLGDRVTIGCSASQGINNNLNWYQQKPDGTVKLLVYYTSSLHSGVPSRFSGSGSGTDYSLTISNLEPEDIATYYCQQFIKLPYTFGGGTKLEIK	M⁻¹ s⁻¹	206000
